experimental target: RNF31 PUB domain (Homo sapiens, UniProt Q96EP0)
Construct: MBP-TEV (N, cleaved yes); made in house; host or cells: E. coli BL21 (DE3) pLysS
Sequence (Q96EP0 1-179): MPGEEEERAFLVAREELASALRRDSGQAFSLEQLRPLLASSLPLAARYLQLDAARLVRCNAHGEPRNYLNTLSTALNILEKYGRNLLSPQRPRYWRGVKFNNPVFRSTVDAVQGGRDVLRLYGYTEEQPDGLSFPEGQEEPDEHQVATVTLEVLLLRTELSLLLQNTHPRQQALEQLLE
procedure details: Phage Library Screening with NGS, RNF31 PUB domain
Format: binding
recorded conditions: clusters C41-C45; BLANK screen, column 5 of 5
Phage library screen NGS readout, BLANK values by entry
// no unit, no text: just the number

Completed entries (count: 2):
sequence_text=DPAMQDCQLAALVCTTY readout_number=0
sequence_text=DPAHANCQLAADVCSTY readout_number=0

Prompt: Consider the sequence DPAFWACLYAAEECVVD . State its measured Phage library screen NGS readout, BLANK.
Response: 1

Prompt: Entry DPAAWECHIAAFVCSTY needs its Phage library screen NGS readout, BLANK filled in; supply it.
Response: 0

Prompt: Consider the sequence DPAWMDCLYAAYDCQHM . State its measured Phage library screen NGS readout, BLANK.
Response: 0

Prompt: Note Phage library screen NGS readout, BLANK for the sequence shown: DPAWEWCLYAAAECIED
Response: 0

Prompt: Given DPAWNDCLYAAETCISW , respond with its Phage library screen NGS readout, BLANK.
Response: 0

----------
experimental target: RNF31 PUB domain (Homo sapiens, UniProt Q96EP0)
Construct: MBP-TEV (N, cleaved yes); made in house; host or cells: E. coli BL21 (DE3) pLysS
Sequence (Q96EP0 1-179): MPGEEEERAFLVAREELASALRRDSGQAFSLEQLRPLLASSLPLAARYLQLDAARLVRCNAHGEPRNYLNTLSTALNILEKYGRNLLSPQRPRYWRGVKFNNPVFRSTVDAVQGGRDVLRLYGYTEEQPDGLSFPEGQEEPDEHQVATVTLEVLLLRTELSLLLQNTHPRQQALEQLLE
procedure details: Phage Library Screening with NGS, RNF31 PUB domain
Type: binding
recorded conditions: clusters C41-C45; BLANK screen, column 3 of 5
Phage library screen NGS readout, BLANK values by entry
// no unit, no text: just the number

sequence_text=DPAMEWCWDAAVFCTYS readout_number=0
sequence_text=DPAYEDCADAAMYCDMD readout_number=0
sequence_text=DPAQDQCISAAVLCTYT readout_number=1
sequence_text=DPAWESCMYAAYDCDNE readout_number=0
sequence_text=DPAIWECVSAAAVCMTY readout_number=0

Prompt: Fill in reported Phage library screen NGS readout, BLANK for this entry: DPAWWNCLYAAYECNHA
Response: 0

Prompt: Output measured Phage library screen NGS readout, BLANK for this item: DPAWMQCMYAAWDCNIE
Response: 0

Prompt: # return recorded Phage library screen NGS readout, BLANK for entry DPAYDLCLNAAVACTYV
Response: 1

Prompt: Quickly give me recorded Phage library screen NGS readout, BLANK for DPAHANCQLAADVCSTY
Response: 0

Prompt: Complete the entry with Phage library screen NGS readout, BLANK for DPAADQCDIAAFVCSTY
Response: 0

Prompt: Specify measured Phage library screen NGS readout, BLANK for DPAAWECHIAAFVCSTY .
Response: 0
